ASSAY_METHOD_TEXT: Urinary recovery after oral administration to dogs (Demonstration 6)
Assay type: in vivo
CONDITION_SUMMARY: dog, urine, po, 5 mg/kg, Dog No. 5, read-out: Urinary Recovery, % over 24 hour
OBSERVABLE: dose excreted at 24 h
Answer format: number, then unit.

Req: Would you mind telling me what dose excreted at 24 h value was observed for O=C1CC(OC/C=C2\O[C@@H]3CC(=O)N3[C@H]2C(=O)O)N1 (stereo partly shown) [Example 27] ?
Resp: 37.3%

====

ASSAY_METHOD_TEXT: Urinary recovery after oral administration to dogs (Demonstration 6)
Format: in vivo
CONDITION_SUMMARY: dog, urine, po, 5 mg/kg, Dog No. 8, read-out: Urinary Recovery, % over 24 hour
OBSERVABLE: dose excreted at 24 h
Just the number plus its unit, please.

Req: Item O=C1CC(OC/C=C2\O[C@@H]3CC(=O)N3[C@H]2C(=O)O)N1 (stereo partly shown) has what recorded dose excreted at 24 h?
Resp: 19.5%

====

ASSAY_METHOD_TEXT: Average blood levels after oral administration to dogs (Demonstration 6)
Assay type: in vivo
CONDITION_SUMMARY: dog, 0.5 hours, 5 mg/kg
OBSERVABLE: concentration at 0.5 h (ng/mL)
One number for each entry, in ng/mL.

{"COMPOUND": "O=C(O)[C@H]1/C(=C/CO)O[C@@H]2CC(=O)N21 [sodium clavulanate, reference compound]", "OBSERVABLE": "concentration at 0.5 h", "UNITS_TEXT": "ng/mL", "REPORTED": 3110}

Req: # concentration at 0.5 h lookup, item O=C1CC(OC/C=C2\O[C@@H]3CC(=O)N3[C@H]2C(=O)O)N1 (some centres unmarked)
Resp: 3640

====

ASSAY_METHOD_TEXT: Urinary recovery after oral administration to dogs (Demonstration 6)
Type: in vivo
CONDITION_SUMMARY: dog, urine, po, 5 mg/kg, Dog No. 3, read-out: Urinary Recovery, % over 24 hour
OBSERVABLE: dose excreted at 24 h (%)
Give bare numbers, in %.

Req: Which value of dose excreted at 24 h has been reported for O=C1CC(OC/C=C2\O[C@@H]3CC(=O)N3[C@H]2C(=O)O)N1 (stereo partly shown) in the records?
Resp: 32.1

====

ASSAY_METHOD_TEXT: Urinary recovery after oral administration to dogs (Demonstration 6)
Assay type: in vivo
CONDITION_SUMMARY: dog, urine, po, 5 mg/kg, Dog No. 1, read-out: Urinary Recovery, % over 24 hour
Experimental: Lithium 9-O-(azetidin-2'-on-4'-yl)clavulanate was administered orally to a group of eight dogs, weighing 9-12 kg, at a dosage of 5 mg/kg. The urinary recovery of the compound over 24 hours was also measured.
OBSERVABLE: dose excreted at 24 h (%)
Numbers only, in %.

Req: Bench note: what dose excreted at 24 h did O=C1CC(OC/C=C2\O[C@@H]3CC(=O)N3[C@H]2C(=O)O)N1 (stereo partly shown) show?
Resp: 20.1

====

ASSAY_METHOD_TEXT: Average blood levels after oral administration to dogs (Demonstration 6)
Assay type: in vivo
CONDITION_SUMMARY: dog, 4 hours, 5 mg/kg
OBSERVABLE: concentration at 4 h (ng/mL)
Numbers only, in ng/mL.

{"MOLECULE": "O=C1CC(OC/C=C2\\O[C@@H]3CC(=O)N3[C@H]2C(=O)O)N1 (some centres unmarked)", "REPORTED": 710}

Moving on to another molecule below.
Req: Given the entry O=C(O)[C@H]1/C(=C/CO)O[C@@H]2CC(=O)N21 [sodium clavulanate, reference compound] , report its measured concentration at 4 h.
Resp: 280

====

ASSAY_METHOD_TEXT: Urinary recovery after oral administration to dogs (Demonstration 6)
Format: in vivo
CONDITION_SUMMARY: dog, urine, po, 5 mg/kg, Dog No. 2, read-out: Urinary Recovery, % over 24 hour
OBSERVABLE: dose excreted at 24 h (%)
Give bare numbers, in %.

Req: Entry under review: O=C1CC(OC/C=C2\O[C@@H]3CC(=O)N3[C@H]2C(=O)O)N1 (stereo partly shown) . Reported dose excreted at 24 h?
Resp: 38.6

====

Consider the following compounds; for each one, report its concentration at 0.25 h.
ASSAY_METHOD_TEXT: Average blood levels after oral administration to dogs (Demonstration 6)
Type: in vivo
CONDITION_SUMMARY: dog, 0.25 hours, 5 mg/kg
Provide the measurement as a number trailed by its unit.

{"COMPOUND": "O=C(O)[C@H]1/C(=C/CO)O[C@@H]2CC(=O)N21 [sodium clavulanate, reference compound]", "concentration at 0.25 h": "0.96 µg/mL"}

Req: GET /values?readout=concentration at 0.25 h&item= O=C1CC(OC/C=C2\O[C@@H]3CC(=O)N3[C@H]2C(=O)O)N1 (some centres unmarked)
Resp: 1.45 µg/mL

====

ASSAY_METHOD_TEXT: Urinary recovery after oral administration to dogs (Demonstration 6)
Format: in vivo
CONDITION_SUMMARY: dog, urine, po, 5 mg/kg, Dog No. 4, read-out: Urinary Recovery, % over 24 hour
OBSERVABLE: dose excreted at 24 h
# do not omit the unit; it follows the number

Req: Requested read-out: dose excreted at 24 h. Entry: O=C1CC(OC/C=C2\O[C@@H]3CC(=O)N3[C@H]2C(=O)O)N1 (stereo partly shown)
Resp: 52.4%
